Please respond with reported melting point for every item in the list.

[
  {
    "compound": "C#Cc1cn(C2CC(O)C(COC(=O)C(C)(C)C)O2)c(=O)[nH]c1=O (stereo unspecified)",
    "observed-result": "64 to 66 °C"
  }
]

Dear colleague, could you send me melting point for each of the items below? Thanks.
1. CCCCCCCCC(=O)Oc1ccc(-c2ccc(C#N)cc2)cc1
2. CC(C)CNC(=O)/C=C/c1cccc(Cl)c1
3. CCOC(=O)C1C(OC)C(=O)N1c1ccc(OC)cc1 (stereo unspecified)
4. CCOC(=O)c1cc2n(c1)CN(C(=O)OCC)c1ccccc1-2
5. O=C(c1ccccc1)c1cc2c(s1)S(=O)(=O)CCc1cc(=O)n(-c3ccc(Cl)cc3)nc1-2
6. COc1ccc(S(=O)(=O)N2c3ccccc3-c3ccccc3C2c2ccccc2)cc1 (stereo unspecified)
7. Cc1cc2c(cc1Br)C(O)CC(C)(C)O2 (stereo unspecified)
8. CCc1cccc(C(C)C)c1N1C(=O)CCN(CC)C1=S

1. 43.2 to 43.6 °C
2. 112 °C
3. 116 to 118 °C
4. 80 to 82 °C
5. 254 to 256 °C
6. 145 to 147 °C
7. 92 to 93 °C
8. 129 to 132 °C

Dear colleague, could you send me melting point for each of the items below? Thanks.
1. COc1cc(C(=O)O)c(N)cc1C
2. N#Cc1cccc(C=Nc2ccc(F)cc2)c1

1: 193 to 196 °C; 2: 101 °C

These entries and their values trace back to a melting point compilation (Tetko et al.; mined from patent text by program, amines drawn as free bases though some values may be those of a salt).
